System: TLR7
Procedure summary: TLR-induced cytokine release in human peripheral blood mononuclear cells (PBMC), TNF-alpha ELISA
Assay type: cell-based
Test conditions: 18 hours incubation, TLR7 ligand, TNF-alpha by ELISA, read-out: EC50 (TNF-α TLR7)
# pEC50 listing for each entry below
pEC50 here: minus log base 10 of the concentration, concentration in moles per litre.

The cases that follow already have their pEC50 on record.
1) CN1CCc2c(sc(NC(=O)c3csc(-c4ccc5c(c4)CCO5)n3)c2C(N)=O)C1 [Example 2.5] ... 5.96
2) COc1ccc(-c2nc(C(=O)Nc3ccccc3C(N)=O)cs2)cc1F [Example 3.4] ... 6.92
3) Cn1cc(NC(=O)c2csc(-c3cccc(S(C)(=O)=O)c3)n2)c(C(N)=O)n1 [Example 1.1] ... 7.07
4) CS(=O)(=O)c1cccc(-c2nc(C(=O)Nc3ccccc3C(N)=O)cs2)c1 [Example 3.2] ... 5.47
5) NC(=O)c1ccccc1NC(=O)c1csc(-c2ccc3c(c2)OCO3)n1 [Example 3.1] ... 6.52

Ask: So what does the record say about pEC50 for Cn1ncc(NC(=O)c2csc(-c3ccc4c(c3)CCO4)n2)c1C(N)=O [Example 2.1] ?
Reply: 5.92
